src = patent US20220306659A1

# ASSAY TARGET: Ba/F3(EML4-ALK) cells (Homo sapiens)
# Construct: fused on or other part: Q9HC35 (Echinoderm microtubule-associated protein-like 4)
# Sequence (Q9UM73 whole entry, change not shown, the tested form may be a part): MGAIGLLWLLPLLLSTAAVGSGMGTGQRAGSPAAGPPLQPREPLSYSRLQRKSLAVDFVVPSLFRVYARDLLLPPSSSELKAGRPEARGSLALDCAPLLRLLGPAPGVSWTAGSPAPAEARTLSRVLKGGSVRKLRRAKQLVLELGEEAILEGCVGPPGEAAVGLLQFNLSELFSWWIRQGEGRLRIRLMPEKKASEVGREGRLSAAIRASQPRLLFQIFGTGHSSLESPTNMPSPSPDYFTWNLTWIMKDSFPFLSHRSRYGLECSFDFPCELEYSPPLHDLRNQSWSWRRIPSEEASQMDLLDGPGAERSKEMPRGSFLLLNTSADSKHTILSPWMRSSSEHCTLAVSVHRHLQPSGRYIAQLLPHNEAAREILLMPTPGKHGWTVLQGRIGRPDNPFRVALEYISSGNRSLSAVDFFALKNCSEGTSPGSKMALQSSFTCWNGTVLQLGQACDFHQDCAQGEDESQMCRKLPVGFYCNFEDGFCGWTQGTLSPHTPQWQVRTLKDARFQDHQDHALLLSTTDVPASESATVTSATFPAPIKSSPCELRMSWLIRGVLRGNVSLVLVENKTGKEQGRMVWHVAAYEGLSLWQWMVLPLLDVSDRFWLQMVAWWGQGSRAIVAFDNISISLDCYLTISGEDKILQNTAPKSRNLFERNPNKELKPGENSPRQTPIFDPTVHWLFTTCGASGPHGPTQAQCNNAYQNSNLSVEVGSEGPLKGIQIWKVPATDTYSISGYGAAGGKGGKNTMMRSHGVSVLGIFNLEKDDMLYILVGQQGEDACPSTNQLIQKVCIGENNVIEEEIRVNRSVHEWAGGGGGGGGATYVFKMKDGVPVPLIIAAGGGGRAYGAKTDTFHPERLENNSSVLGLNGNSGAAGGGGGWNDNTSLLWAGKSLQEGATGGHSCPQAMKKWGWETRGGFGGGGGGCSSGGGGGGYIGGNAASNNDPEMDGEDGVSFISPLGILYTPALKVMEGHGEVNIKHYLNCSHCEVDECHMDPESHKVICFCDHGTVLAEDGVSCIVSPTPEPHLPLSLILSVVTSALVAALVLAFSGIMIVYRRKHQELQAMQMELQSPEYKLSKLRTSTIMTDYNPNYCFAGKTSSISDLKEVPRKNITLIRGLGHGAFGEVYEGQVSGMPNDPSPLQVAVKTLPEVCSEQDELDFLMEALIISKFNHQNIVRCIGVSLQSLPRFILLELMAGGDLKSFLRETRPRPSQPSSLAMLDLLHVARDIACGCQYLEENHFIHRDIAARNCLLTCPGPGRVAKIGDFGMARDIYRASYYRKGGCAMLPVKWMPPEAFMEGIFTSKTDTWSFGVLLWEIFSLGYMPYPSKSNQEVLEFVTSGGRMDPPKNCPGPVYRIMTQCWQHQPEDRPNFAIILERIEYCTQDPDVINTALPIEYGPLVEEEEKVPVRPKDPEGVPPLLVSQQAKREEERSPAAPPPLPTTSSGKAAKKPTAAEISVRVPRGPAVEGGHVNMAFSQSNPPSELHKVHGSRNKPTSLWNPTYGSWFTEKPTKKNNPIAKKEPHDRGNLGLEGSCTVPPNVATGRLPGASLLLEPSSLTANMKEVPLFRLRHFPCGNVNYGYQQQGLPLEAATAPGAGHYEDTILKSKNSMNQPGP
# ASSAY NAME: Assay of activity on Ba/F3(EML4-ALK) cells (CTG, 72 h)
# Assay type: cell-based
# CONDITIONS USED: read-out: IC50 (nM) Ba/F3(EML4-ALK)
# Method: Assay of activity on Ba/F3(EML4-ALK) cells (1) Ba/F3(EML4-ALK) cells were cultured according to the requirements of ATCC, incubated in an incubator at 37° C. and 5% CO2, and analyzed by index; cells with viability of >90% can be used in the assay, and cells were seeded in a 384-well plate (PerkinElmer, 6007680) with 700 cells/well, 30 μl/well. […] The percent inhibition rate (% inhibition) was calculated by the formula below LUMcmpd: Luminescence value of assay compound. […]
QUANTITY: GI50

1. COc1cc(N2CCC(N3CCN(CCCCC#Cc4cccc5c4CN(C4CCC(=O)NC4=O)C5=O)CC3)CC2)c(C)cc1Nc1ncc(Br)c(Nc2ccc3nccnc3c2P(C)(C)=O)n1 (centres unmarked) :: 1 to 100 nM
2. COc1cc(N2CCC3(CCN(CCCCCCCOc4cccc5c4C(=O)N(C4CCC(=O)NC4=O)C5=O)CC3)CC2)c(C)cc1Nc1ncc(Br)c(Nc2ccc3nccnc3c2P(C)(C)=O)n1 (centres unmarked) :: 101 to 200 nM
3. COc1cc(N2CCC(N3CCN(CCCCCCCC#Cc4ccc5c(c4)CN(C4CCC(=O)NC4=O)C5=O)CC3)CC2)ccc1Nc1ncc(Cl)c(Nc2ccccc2P(C)(C)=O)n1 (centres unmarked) :: 1 to 100 nM
4. COc1cc(N2CCC(N3CCN(CCCCCC#Cc4ccc5c(c4)CN(C4CCC(=O)NC4=O)C5=O)CC3)CC2)ccc1Nc1ncc(Cl)c(Nc2ccccc2P(C)(C)=O)n1 (centres unmarked) :: 1 to 100 nM

Next:
Sure, the documented GI50 for COc1cc(N2CCC(N3CCN(CCCCOCC#Cc4cccc5c4CN(C4CCC(=O)NC4=O)C5=O)CC3)CC2)ccc1Nc1ncc(Cl)c(Nc2ccccc2P(C)(C)=O)n1 (centres unmarked) is 1 to 100 nM

###

Measured IC50, listed per entry.
# ASSAY TARGET: EGFR^L858R/T790M/C797S (Homo sapiens, UniProt P00533, C797S/L858R/T790M)
# Sequence (P00533 25-1210 T790M/C797S/L858R): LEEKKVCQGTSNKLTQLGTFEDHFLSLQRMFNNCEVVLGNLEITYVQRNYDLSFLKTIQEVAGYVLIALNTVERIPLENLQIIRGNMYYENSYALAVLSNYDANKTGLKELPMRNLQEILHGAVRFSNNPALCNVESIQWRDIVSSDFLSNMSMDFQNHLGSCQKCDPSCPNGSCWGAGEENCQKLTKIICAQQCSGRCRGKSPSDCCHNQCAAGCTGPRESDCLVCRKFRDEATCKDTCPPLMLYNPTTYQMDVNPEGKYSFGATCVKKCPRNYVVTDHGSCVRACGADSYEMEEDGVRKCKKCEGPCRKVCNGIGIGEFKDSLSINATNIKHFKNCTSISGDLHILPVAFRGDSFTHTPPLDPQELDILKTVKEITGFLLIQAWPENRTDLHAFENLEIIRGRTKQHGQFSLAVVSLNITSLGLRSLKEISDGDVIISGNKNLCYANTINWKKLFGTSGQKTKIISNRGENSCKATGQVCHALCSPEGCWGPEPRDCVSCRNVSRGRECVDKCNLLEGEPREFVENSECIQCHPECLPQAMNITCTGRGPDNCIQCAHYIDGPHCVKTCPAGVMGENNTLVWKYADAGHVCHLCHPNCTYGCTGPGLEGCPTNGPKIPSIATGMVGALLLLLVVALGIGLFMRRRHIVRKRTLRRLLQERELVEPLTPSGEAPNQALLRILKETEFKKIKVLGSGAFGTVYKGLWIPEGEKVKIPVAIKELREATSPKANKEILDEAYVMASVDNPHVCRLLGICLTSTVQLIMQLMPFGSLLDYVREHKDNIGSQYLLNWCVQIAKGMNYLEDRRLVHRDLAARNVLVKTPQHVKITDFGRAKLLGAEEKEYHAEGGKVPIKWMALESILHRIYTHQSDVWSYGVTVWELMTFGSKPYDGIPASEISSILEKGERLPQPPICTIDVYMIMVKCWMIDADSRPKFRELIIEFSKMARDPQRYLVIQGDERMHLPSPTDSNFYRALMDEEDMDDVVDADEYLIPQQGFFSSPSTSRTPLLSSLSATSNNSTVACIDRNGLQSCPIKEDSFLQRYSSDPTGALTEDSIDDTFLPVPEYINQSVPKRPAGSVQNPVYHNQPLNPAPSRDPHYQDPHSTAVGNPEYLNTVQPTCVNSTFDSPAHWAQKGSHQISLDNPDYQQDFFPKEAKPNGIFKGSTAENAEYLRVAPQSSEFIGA
# ASSAY NAME: EGFR inhibitory activity assay (TK-substrate-biotin/ATP, 665/615 ratio)
# Assay type: biochemical
# CONDITIONS USED: kinase inhibition

Sample records with IC50:
1) COc1cc(N2CCC(N3CCN(CCCCCCCCCNc4cccc5c4CN(C4CCC(=O)NC4=O)C5=O)CC3)CC2)ccc1Nc1ncc(Cl)c(Nc2ccccc2P(C)(C)=O)n1 (stereo not drawn) [Compound A13] :: 101 to 200 nM
2) COc1cc(N2CCC(N3CCN(C(=O)C4(C(=O)Oc5cccc6c5C(=O)N(C5CCC(=O)NC5=O)C6=O)CC4)CC3)CC2)ccc1Nc1ncc(Cl)c(Nc2ccccc2P(C)(C)=O)n1 (stereo not drawn) [Compound C104] :: 1 to 100 nM

Sure, the documented IC50 for COc1cc(N2CCC(N3CCN(CCCCCC#Cc4cccc5c4C(=O)N(C4CCC(=O)NC4=O)C5=O)CC3)CC2)ccc1Nc1ncc(Cl)c(Nc2ccccc2P(C)(C)=O)n1 (stereo not drawn) [Compound C148] is 1 to 100 nM

###

Measured GI50, listed per entry.
# ASSAY TARGET: Ba/F3(EGFR^Del19/T790M/C797S) cells (Homo sapiens, UniProt P00533, DEL746-750/T790M/C797S, cells depend on it)
# Sequence (P00533 with tags, fused parts or gaps DEL746-750/T790M/C797S): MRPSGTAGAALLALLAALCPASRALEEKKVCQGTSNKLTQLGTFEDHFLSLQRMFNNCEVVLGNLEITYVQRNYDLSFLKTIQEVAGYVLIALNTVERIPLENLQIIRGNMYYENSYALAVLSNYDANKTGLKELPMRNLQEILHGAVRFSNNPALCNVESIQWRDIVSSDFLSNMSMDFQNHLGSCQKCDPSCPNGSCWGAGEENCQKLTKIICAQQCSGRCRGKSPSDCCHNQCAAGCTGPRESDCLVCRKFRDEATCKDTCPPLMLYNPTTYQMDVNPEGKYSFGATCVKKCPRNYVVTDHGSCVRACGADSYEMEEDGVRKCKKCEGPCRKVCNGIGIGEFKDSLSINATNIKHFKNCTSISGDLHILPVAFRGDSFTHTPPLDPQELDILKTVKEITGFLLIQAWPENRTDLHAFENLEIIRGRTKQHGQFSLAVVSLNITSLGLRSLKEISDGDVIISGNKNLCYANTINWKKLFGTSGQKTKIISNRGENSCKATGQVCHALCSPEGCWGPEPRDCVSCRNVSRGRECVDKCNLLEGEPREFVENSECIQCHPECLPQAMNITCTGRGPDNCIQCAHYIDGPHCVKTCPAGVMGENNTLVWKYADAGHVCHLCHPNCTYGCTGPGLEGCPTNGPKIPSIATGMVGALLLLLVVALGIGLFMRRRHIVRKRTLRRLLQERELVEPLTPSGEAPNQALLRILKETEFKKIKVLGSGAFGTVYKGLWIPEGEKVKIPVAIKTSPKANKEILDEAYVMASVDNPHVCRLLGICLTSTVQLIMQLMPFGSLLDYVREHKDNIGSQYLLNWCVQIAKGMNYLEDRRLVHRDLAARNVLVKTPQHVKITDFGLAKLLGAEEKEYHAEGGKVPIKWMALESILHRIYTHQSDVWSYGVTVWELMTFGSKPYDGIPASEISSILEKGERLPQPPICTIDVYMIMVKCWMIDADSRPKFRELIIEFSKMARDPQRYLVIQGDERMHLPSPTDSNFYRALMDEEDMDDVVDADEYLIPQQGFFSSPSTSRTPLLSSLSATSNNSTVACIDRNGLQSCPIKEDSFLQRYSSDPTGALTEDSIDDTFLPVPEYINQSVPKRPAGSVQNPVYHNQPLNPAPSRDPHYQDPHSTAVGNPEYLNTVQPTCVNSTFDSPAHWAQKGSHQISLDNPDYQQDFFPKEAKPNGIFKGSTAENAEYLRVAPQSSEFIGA
# ASSAY NAME: Assay of activity on Ba/F3 cells (CTG, 72 h)
# Format: cell-based
# CONDITIONS USED: read-out: IC50 (nM) Ba/F3 (EGFR^Del19/T790M/C797S)

Sample records with GI50:
1. COc1cc(N2CCC(N3CCN(CCCCCCCOc4cccc5c4CN(C4CCC(=O)NC4=O)C5=O)CC3)CC2)c(C)cc1Nc1ncc(Br)c(Nc2ccc3nccnc3c2P(C)(C)=O)n1 (stereo not drawn) :: 1 to 100 nM
2. COc1cc(N2CCC(N3CCN(CCCCCC#Cc4cc(C#N)cc5c4CN(C4CCC(=O)NC4=O)C5=O)CC3)CC2)ccc1Nc1ncc(Cl)c(Nc2ccccc2P(C)(C)=O)n1 (stereo not drawn) :: 1 to 100 nM

Sure, the documented GI50 for COc1cc(N2CCC(N3CCN(CCCCCCCCC#Cc4ccc5c(c4)CN(C4CCC(=O)NC4=O)C5=O)CC3)CC2)ccc1Nc1ncc(Cl)c(Nc2ccccc2P(C)(C)=O)n1 (stereo not drawn) is 1 to 100 nM

###

# ASSAY TARGET: ALK (Homo sapiens)
# ASSAY NAME: Assay of activity on ALK kinase
# Type: biochemical
# CONDITIONS USED: kinase inhibition
Measured IC50, listed per entry.

Sample records with IC50:
1. COc1cc(N2CCC(N3CCN(CCCCC#Cc4cccc5c4CN(C4CCC(=O)NC4=O)C5=O)CC3)CC2)ccc1Nc1ncc(Cl)c(Nc2ccccc2P(C)(C)=O)n1 (centres unmarked) :: 1 to 100 nM
2. COc1cc(N2CCC(N3CCN(C(=O)CCCCCCc4cccc5c4C(=O)N(C4CCC(=O)NC4=O)C5=O)CC3)CC2)ccc1Nc1ncc(Cl)c(Nc2ccccc2P(C)(C)=O)n1 (centres unmarked) :: 101 to 200 nM
3. COc1cc(N2CCC(N3CCN(CCCCCCCC#Cc4cccc5c4CN(C4CCC(=O)NC4=O)C5=O)CC3)CC2)ccc1Nc1ncc(Cl)c(Nc2ccccc2P(C)(C)=O)n1 (centres unmarked) :: 1 to 100 nM
4. COc1cc(N2CCC(N3CCN(CCCCCC#Cc4ccc5c(c4)CN(C4CCC(=O)NC4=O)C5=O)CC3)CC2)ccc1Nc1ncc(Cl)c(Nc2ccccc2P(C)(C)=O)n1 (centres unmarked) :: 1 to 100 nM

Next:
Sure, the documented IC50 for COc1cc(N2CCC(N3CCN(CCCCCCCCCNc4cccc5c4CN(C4CCC(=O)NC4=O)C5=O)CC3)CC2)ccc1Nc1ncc(Cl)c(Nc2ccccc2P(C)(C)=O)n1 (centres unmarked) is 1 to 100 nM

###

# ASSAY TARGET: Ba/F3(EGFR^Del19/T790M/C797S) cells (Homo sapiens, UniProt P00533, DEL746-750/T790M/C797S, cells depend on it)
# ASSAY NAME: Assay of activity on Ba/F3 cells (CTG, 72 h)
# Type: cell-based
# CONDITIONS USED: read-out: IC50 (nM) Ba/F3 (EGFR^Del19/T790M/C797S)
# Description: (2) A compound stock solution was prepared, and then diluted 3× to obtain a compound dilution. 30 nL of the compound dilution was added to a 384-well plate by Echo (Labcyte, Echo550). The cells were incubated in an incubator at 37° C. and 5% CO2 for 72 h. The percent inhibition rate (% inhibition) was calculated by the following formula LUMcmpd: Luminescence value of assay compound. LUMpositive: Average LUM value of positive drug at a concentration of 10 μM. LUMvehicle. […]
QUANTITY: GI50

1. COc1cc(N2CCC(N3CCN(CCCCCn4cc(-c5cccc6c5CN(C5CCC(=O)NC5=O)C6=O)cn4)CC3)CC2)ccc1Nc1ncc(Cl)c(Nc2ccccc2P(C)(C)=O)n1 (stereo not drawn) :: > 300 nM
2. COc1cc(N2CCC(N3CCN(CCCCCCC#Cc4cccc5c4CN(C4CCC(=O)NC4=O)C5=O)CC3)CC2)ccc1Nc1ncc(Cl)c(Nc2ccccc2P(C)(C)=O)n1 (stereo not drawn) :: 1 to 100 nM

Next:
Sure, the documented GI50 for COc1cc(N2CCC(N3CCN(CCCCC#Cc4cccc5c4CN(C4CCC(=O)NC4=O)C5=O)CC3)CC2)c(C)cc1Nc1ncc(Br)c(Nc2ccc3nccnc3c2P(C)(C)=O)n1 (stereo not drawn) is 1 to 100 nM

###

# ASSAY TARGET: EGFR^L858R/T790M/C797S (Homo sapiens, UniProt P00533, C797S/L858R/T790M)
# ASSAY NAME: EGFR inhibitory activity assay (TK-substrate-biotin/ATP, 665/615 ratio)
# Type: biochemical
# CONDITIONS USED: kinase inhibition
QUANTITY: IC50

Sample records with IC50:
1) COc1cc(N2CCC(N3CCN(CCCCCCCNc4cccc5c4CN(C4CCC(=O)NC4=O)C5=O)CC3)CC2)ccc1Nc1ncc(Cl)c(Nc2ccccc2P(C)(C)=O)n1 (stereo not drawn) :: 1 to 100 nM
2) COc1cc(N2CCC(N3CCN(CCCCCC#Cc4cc(F)cc5c4CN(C4CCC(=O)NC4=O)C5=O)CC3)CC2)ccc1Nc1ncc(Cl)c(Nc2ccccc2P(C)(C)=O)n1 (stereo not drawn) :: 1 to 100 nM

Next:
The measured IC50 that COc1cc(N2CCC(N3CCN(C(=O)C(C)(C)COC(=O)COc4cccc5c4C(=O)N(C4CCC(=O)NC4=O)C5=O)CC3)CC2)ccc1Nc1ncc(Cl)c(Nc2ccccc2P(C)(C)=O)n1 (stereo not drawn) showed for EGFR^L858R/T790M/C797S (Homo sapiens, UniProt P00533, C797S/L858R/T790M) is 101 to 200 nM
